Molecular target: ICAM-1 expressed on cells (JY cells; stimulated endothelial cells) (UniProt P05362 28-532, limits assumed)
Sequence (P05362 28-532 limits assumed): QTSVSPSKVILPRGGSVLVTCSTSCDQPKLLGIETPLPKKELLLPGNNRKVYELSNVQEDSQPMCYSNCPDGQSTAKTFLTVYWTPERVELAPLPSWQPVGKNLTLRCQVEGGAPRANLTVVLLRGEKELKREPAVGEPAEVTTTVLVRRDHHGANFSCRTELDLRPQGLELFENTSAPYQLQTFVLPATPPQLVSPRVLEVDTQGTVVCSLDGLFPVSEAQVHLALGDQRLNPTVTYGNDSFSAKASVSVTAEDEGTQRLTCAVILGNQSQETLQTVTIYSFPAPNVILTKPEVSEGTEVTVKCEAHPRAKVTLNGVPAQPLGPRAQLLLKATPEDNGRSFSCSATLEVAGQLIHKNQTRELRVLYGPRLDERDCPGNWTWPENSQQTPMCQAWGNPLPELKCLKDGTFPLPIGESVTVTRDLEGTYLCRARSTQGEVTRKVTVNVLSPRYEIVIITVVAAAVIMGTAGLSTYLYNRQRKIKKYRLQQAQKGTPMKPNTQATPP
Experiment: cell-based or functional assay
Bridge positions count the residues as written; N and C are the ends. Ends that are not written are not given here.
Kind request: treat 70 percent as inclusive, so Percent JY Aggregation at 70 percent or higher is rule met, anything lower is rule not met.

[
  {
    "Binder": "CLLRMRAIC (disulfide 1-9) [CLLRMRAIC (SEQ ID NO: 39), cyclic disulfide-linked peptide]",
    "Class label": "rule not met"
  },
  {
    "Binder": "CLLRMRSIC (disulfide 1-9, Synthesized by Biopeptide; consensus derived from phage display on ICAM-1) [consensus peptide CLLRMRSIC (SEQ ID NO: 1), cyclized in the disulfide-linked form]",
    "Class label": "rule not met"
  },
  {
    "Binder": "CLLRMRSAC (disulfide 1-9) [CLLRMRSAC (SEQ ID NO: 40), cyclic disulfide-linked peptide]",
    "Class label": "rule not met"
  },
  {
    "Binder": "CLRLSRIMC (disulfide 1-9) [randomized cyclic peptide CLRLSRIMC (SEQ ID NO: 56)]",
    "Class label": "rule met"
  }
]
